target: human CH24H (Homo sapiens); construct: Using Full-Length Mammalian Gene Collection No. 4819975 (Invitrogen) as a template; made in house; host or cells: FreeStyle 293-F cells, transient transfection with pcDNA3.1(+)/hCH24H; lysate supernatant, not purified; assay: Measurement of CH24H inhibitory activity (24-HC produced from [14C] cholesterol by human CH24H lysate); format: biochemical; conditions: 1 μM test compound, [14C] cholesterol 15 μM, 37° C. for 5 hr, read-out: Inhibitory Rate in 1 μM (%)
Sequence (Q9Y6A2 whole entry): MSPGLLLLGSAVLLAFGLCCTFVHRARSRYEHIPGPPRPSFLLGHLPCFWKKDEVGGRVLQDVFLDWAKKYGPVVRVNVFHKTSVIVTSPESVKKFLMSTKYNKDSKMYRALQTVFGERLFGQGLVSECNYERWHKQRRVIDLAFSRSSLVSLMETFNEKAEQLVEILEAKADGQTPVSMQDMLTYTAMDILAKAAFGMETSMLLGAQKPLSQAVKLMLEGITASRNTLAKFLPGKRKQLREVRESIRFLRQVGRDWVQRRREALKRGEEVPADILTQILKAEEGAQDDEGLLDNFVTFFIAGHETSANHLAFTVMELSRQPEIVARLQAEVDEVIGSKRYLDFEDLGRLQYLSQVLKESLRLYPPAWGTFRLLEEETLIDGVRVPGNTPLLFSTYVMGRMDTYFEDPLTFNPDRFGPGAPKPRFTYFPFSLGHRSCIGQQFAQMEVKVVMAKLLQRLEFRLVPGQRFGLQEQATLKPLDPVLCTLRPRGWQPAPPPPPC
Known inhibition at 1 µM of a selection of compounds
Give the quantity in %, number only.

Known inhibition at 1 µM results, listed for orientation:
Compound	Target or system	Numeric readout
Cc1cnn(-c2ccncc2N2CCC(C(=O)N3CC(F)C3)CC2)c1	human CH24H (Homo sapiens)	78
O=C(NC1CC1)C1CCN(c2cncnc2-c2ccc(F)cc2)CC1	human CH24H (Homo sapiens)	90
O=C(C1CCN(c2cnccc2-n2cc(Cl)cn2)CC1)N1C2COCC1C2	human CH24H (Homo sapiens)	98

Form field: inhibition at 1 µM recorded for Cc1cnn(-c2ccncc2N2CCC(C(=O)N(C)C3CCOCC3)CC2)c1 with human CH24H (Homo sapiens) (enter value)
86

Form field: inhibition at 1 µM recorded for Cc1cnn(-c2ccncc2N2CCN(C(=O)N(CCF)Cc3ccc(F)cc3)CC2)c1 with human CH24H (Homo sapiens) (enter value)
94

Form field: inhibition at 1 µM recorded for O=C(NC1CCOCC1)C1CCN(c2cnccc2-n2cc(Cl)cn2)CC1(F)F (stereo not drawn) with human CH24H (Homo sapiens) (enter value)
93

Form field: inhibition at 1 µM recorded for Cc1ccc(-c2ccncc2N2CCN(C(=O)CC3CC3)CC2)cc1 with human CH24H (Homo sapiens) (enter value)
92

Form field: inhibition at 1 µM recorded for Cc1cn(-c2ccncc2N2CCC(C(=O)NC3CC3)CC2)nc1C with human CH24H (Homo sapiens) (enter value)
88

Form field: inhibition at 1 µM recorded for O=C(C1CCN(c2cnccc2-n2cc(Br)cn2)CC1)N1CC[C@H](F)C1 with human CH24H (Homo sapiens) (enter value)
94

Form field: inhibition at 1 µM recorded for O=C(NC1CCCC1)C1CCN(c2cnccc2-n2cc(Cl)cn2)CC1(F)F (stereo not drawn) with human CH24H (Homo sapiens) (enter value)
98

Form field: inhibition at 1 µM recorded for CC1(CNC(=O)C2CCN(c3cnccc3-n3cc(Cl)cn3)CC2)COC1 with human CH24H (Homo sapiens) (enter value)
97

Form field: inhibition at 1 µM recorded for Cc1cnn(-c2ccncc2N2CCC(C(=O)N3CCC[C@]3(C)C#N)CC2)c1 with human CH24H (Homo sapiens) (enter value)
79

Form field: inhibition at 1 µM recorded for N#C[C@H]1CCCN1C(=O)N1CCN(c2cncnc2-c2ccc(F)cc2)CC1 with human CH24H (Homo sapiens) (enter value)
90

Form field: inhibition at 1 µM recorded for C[C@@H]1CN(c2cncnc2-c2ccccc2)CCN1C(=O)OCc1ccccc1 with human CH24H (Homo sapiens) (enter value)
85

Form field: inhibition at 1 µM recorded for CN(C(=O)C1CCN(c2cnccc2-n2cc(Cl)cn2)CC1)C1CC1 with human CH24H (Homo sapiens) (enter value)
96

Form field: inhibition at 1 µM recorded for N#C[C@H]1CCCN1C(=O)C1CCN(c2cnccc2-n2cc(Cl)cn2)CC1 with human CH24H (Homo sapiens) (enter value)
96

Form field: inhibition at 1 µM recorded for Cc1nnc(-c2ccncc2N2CCC(C(=O)N3CC(F)(F)C[C@@H]3C#N)CC2)s1 with human CH24H (Homo sapiens) (enter value)
87

Form field: inhibition at 1 µM recorded for N#C[C@H]1CC(F)(F)CN1C(=O)C1CCN(c2cnccc2-c2ccccn2)CC1 with human CH24H (Homo sapiens) (enter value)
98
